# System: SF-268
# experimentSummary: NCI tumour cell line growth inhibition, 48 h
Active and inactive are the calls of the source. Cut-off read from the data, not from the text of the source: active = GI50 up to about 1.1 µM and inactive = higher.
Outcomes: TRUE (active), FALSE (inactive)

1) COc1ccc2oc(=O)c(-c3nc4ccccc4o3)cc2c1	FALSE
2) O=C1c2ccccc2C2(O)Nc3c(ccc4ccccc34)C12O (configuration not stated)	FALSE
3) N#CC(Cc1ccccc1)N(CCC1=CCCCC1)C(c1ccccc1)c1ccccc1 (configuration not stated)	FALSE
4) O=C(O)c1ccc2[nH]c(=O)oc2c1	FALSE
5) CN(C)c1ccc(-c2cc(O)c3ccccc3n2)cc1	FALSE
6) CCN1/C(=C/C#C/C(C)=C\c2sc3ccccc3[n+]2CC)Sc2ccccc21	FALSE
7) CCSC1(SCC)CC(Cc2ccc(OC)cc2)N(/C=N/C(C)(C)C)C1 (configuration not stated)	FALSE
8) Cn1c(-c2cccs2)cc(-c2ccsc2)c1-c1cccs1	FALSE
9) CC(=O)OC/C=C\Cn1nc(Br)c(=O)[nH]c1=O	FALSE
10) O=C1CCCC2=C1CC1=C(CCCC1=O)N2c1ccc(-c2ccccc2)cc1	FALSE
11) CC(C)=CCC[C@@H](C)C1=C(Nc2ccccc2Cl)C(=O)C(C)=C(O)C1=O	FALSE
12) CC1(C)CCC(Sc2ccccc2)O1 (configuration not stated)	FALSE
13) Cc1cccc(NC2=NC(=O)C(CC(=O)Nc3ccccc3Cl)S2)c1 (configuration not stated)	FALSE
14) CN(Cc1cnc2nc(N)nc(N)c2n1)c1ccc(C(=O)NC(CCC(=O)NCC(P(=O)(O)O)P(=O)(O)O)C(=O)O)cc1 (configuration not stated)	FALSE
15) O=C(c1ccccc1)c1c(C(=O)c2ccccc2)c(-c2ccccc2)c2c(-c3ccccc3)sc(-c3ccccc3)c2c1-c1ccccc1	FALSE
16) COC(=O)C(Cc1c[nH]c2ccccc12)NP(=O)(O)OCC1OC(n2cc(I)c(=O)[nH]c2=O)CC1O (configuration not stated)	FALSE
17) C=C(C)C1CC=C(C)CC1 (configuration not stated)	FALSE
18) Cc1ccccc1NC(=O)CC(=O)NNCC(=O)Nc1nnc(-c2ccccc2)s1	FALSE
19) COc1cc2c[n+](C)c3c4cc5c(cc4ccc3c2cc1OC)OCO5 [NITIDINE CHLORIDE]	TRUE
20) CC(C)=CCC12Cc3ccc(O)cc3C(C(C)CN1)C2C (configuration not stated)	FALSE
21) COC(=O)/C(=C\Nc1cccc(C)n1)S(=O)(=O)c1ccc(C)cc1	FALSE
22) Cn1nc(-c2ccccc2)c2c(/C=C/c3ccc(F)cc3)onc2c1=O	FALSE
